// values below are pIC50; system is PCNA (Homo sapiens)
Sequence (P12004 with tags, fused parts or gaps): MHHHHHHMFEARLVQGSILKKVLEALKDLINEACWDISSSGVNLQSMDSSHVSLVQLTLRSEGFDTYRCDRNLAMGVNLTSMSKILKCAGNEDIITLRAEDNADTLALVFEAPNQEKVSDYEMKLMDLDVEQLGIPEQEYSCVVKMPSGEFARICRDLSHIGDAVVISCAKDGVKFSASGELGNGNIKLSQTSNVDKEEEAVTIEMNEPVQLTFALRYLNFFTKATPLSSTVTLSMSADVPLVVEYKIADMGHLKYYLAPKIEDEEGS
Answers are plain numbers, as −log10 of the molar value.

1. NCc1ccc(CN(CC(N)=O)C(=O)CN(CCO)C(=O)CN[C@H](CO)Cc2cc(I)c(Oc3ccc(O)cc3)c(I)c2)cc1    5.93

Consider the record given below.
Entry NCCCCNCC(=O)N(CC(=O)N(CC(N)=O)Cc1ccc(CN)cc1)Cc1ccc2c(c1)OCO2 , pIC50 reported as 4.89

----------
Target: PCNA (Homo sapiens)
Provide the reported pKi of each item.
Give bare numbers, as −log10 of the molar value.

1. NCCCCNCC(=O)N(CC(=O)N(CC(N)=O)Cc1ccc(CN)cc1)Cc1ccc2c(c1)OCO2    5.91

Consider the record given below.
Entry NCc1ccc(CN(CC(N)=O)C(=O)CN(CCO)C(=O)CN[C@H](CO)Cc2cc(I)c(Oc3ccc(O)cc3)c(I)c2)cc1 , pKi reported as 6.94
